Target: Protein cereblon/CREB-binding protein (Homo sapiens) (UniProt Q92793+Q96SW2)
Sequence (Q92793 2-2442 limits assumed): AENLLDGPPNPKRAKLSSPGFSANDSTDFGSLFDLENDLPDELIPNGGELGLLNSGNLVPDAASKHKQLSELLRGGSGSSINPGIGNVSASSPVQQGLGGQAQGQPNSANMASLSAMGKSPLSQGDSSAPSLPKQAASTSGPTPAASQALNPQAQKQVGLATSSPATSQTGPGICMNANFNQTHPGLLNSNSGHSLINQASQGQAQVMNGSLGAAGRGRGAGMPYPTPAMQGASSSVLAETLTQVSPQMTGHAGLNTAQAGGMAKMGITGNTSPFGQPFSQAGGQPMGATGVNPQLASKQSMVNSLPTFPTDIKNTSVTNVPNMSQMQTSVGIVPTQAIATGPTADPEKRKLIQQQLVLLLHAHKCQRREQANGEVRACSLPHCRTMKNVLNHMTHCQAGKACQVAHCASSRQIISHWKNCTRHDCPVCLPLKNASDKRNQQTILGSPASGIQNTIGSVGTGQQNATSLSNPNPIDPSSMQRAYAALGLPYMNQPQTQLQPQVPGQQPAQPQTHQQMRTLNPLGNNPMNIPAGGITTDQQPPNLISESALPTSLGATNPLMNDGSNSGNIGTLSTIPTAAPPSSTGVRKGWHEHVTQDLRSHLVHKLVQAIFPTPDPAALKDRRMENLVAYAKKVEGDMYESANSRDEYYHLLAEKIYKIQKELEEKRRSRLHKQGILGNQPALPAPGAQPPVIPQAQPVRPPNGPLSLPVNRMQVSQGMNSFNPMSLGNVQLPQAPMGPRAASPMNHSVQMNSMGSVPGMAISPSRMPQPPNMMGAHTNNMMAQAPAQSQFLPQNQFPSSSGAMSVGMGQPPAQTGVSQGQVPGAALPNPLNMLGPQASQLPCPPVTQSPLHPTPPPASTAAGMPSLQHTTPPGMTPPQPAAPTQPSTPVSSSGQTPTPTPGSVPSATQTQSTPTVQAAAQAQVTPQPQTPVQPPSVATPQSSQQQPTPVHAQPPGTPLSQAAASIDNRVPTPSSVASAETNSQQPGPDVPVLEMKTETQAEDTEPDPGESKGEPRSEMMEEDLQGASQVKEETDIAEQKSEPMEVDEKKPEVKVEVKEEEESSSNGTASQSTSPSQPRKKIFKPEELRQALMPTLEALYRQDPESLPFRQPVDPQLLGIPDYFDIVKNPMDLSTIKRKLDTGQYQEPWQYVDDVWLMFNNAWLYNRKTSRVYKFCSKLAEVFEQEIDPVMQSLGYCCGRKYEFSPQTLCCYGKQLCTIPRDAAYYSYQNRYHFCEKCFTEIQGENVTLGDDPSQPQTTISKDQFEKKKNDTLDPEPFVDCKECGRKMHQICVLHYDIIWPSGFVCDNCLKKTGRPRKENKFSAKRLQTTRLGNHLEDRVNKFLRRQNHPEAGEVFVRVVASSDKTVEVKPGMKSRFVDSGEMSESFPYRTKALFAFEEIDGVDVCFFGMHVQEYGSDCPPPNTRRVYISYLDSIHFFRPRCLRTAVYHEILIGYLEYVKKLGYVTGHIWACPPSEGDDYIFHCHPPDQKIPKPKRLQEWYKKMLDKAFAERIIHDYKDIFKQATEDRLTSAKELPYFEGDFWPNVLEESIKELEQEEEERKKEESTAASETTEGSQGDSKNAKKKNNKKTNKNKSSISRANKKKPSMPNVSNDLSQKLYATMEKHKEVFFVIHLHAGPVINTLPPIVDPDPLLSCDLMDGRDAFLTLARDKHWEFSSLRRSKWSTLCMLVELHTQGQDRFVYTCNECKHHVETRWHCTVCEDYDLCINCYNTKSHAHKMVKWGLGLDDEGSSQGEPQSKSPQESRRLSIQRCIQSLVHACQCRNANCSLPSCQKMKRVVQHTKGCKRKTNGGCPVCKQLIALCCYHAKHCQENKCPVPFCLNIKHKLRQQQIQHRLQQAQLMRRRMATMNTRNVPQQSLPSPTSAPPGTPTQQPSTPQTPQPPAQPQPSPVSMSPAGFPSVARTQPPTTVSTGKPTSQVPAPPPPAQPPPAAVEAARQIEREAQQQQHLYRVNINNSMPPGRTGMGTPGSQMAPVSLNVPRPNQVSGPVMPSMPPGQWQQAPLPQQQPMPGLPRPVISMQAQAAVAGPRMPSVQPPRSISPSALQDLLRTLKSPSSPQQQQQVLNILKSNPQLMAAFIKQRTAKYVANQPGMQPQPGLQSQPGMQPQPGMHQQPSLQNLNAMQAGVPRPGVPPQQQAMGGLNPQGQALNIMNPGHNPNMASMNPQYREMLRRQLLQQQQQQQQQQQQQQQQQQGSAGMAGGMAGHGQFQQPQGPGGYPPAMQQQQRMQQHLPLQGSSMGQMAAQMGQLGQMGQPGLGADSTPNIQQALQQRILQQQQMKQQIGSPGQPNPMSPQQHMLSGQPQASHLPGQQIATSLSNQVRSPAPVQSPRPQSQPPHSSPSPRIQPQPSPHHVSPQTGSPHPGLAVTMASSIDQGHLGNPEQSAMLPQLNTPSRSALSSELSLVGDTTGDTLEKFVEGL
Sequence (Q96SW2 whole entry partner): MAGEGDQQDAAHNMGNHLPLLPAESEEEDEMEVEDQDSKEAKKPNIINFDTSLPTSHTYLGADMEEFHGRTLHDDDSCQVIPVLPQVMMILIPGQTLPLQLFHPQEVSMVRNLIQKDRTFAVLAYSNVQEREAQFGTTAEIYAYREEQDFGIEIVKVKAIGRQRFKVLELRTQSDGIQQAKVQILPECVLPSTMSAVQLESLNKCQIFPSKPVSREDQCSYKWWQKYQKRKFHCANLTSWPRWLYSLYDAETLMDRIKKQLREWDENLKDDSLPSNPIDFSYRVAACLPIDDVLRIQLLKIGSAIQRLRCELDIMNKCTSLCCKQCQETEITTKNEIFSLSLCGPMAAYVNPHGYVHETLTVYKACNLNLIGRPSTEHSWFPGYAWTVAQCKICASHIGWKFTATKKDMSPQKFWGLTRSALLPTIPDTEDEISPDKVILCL
Test: Binding affinity to recombinant CRBN/CBP bromodomain (unknown origin) assessed as ternary complex formation at 10 to 100 nM by Alphascreen-based proximity assay
Assay type: protein assay
Settings: dose 10-100 nM
Calls of active or inactive are those of the source. The rule behind the calls is not given here.

{"columns": ["compound", "tgt", "Activity"],
 "data": [
  ["CNC(=O)N1CCc2c(c(N3CCCc4cc(-c5cnn(CC(=O)NCCOCCOCCOCCOCCOCCOCCNc6ccc7c(c6)C(=O)N(C6CCC(=O)NC6=O)C7=O)c5)c(C(F)F)cc43)nn2C2CCOCC2)C1 (stereo not drawn)", "Protein cereblon/CREB-binding protein (Homo sapiens) (UniProt Q92793+Q96SW2)", "Active"],
  ["CNC(=O)N1CCc2c(c(N3CCCc4cc(-c5cnn(CC(=O)NCCOCCNc6ccc7c(c6)C(=O)N(C6CCC(=O)NC6=O)C7=O)c5)c(C(F)F)cc43)nn2C2CCOCC2)C1 (stereo not drawn)", "Protein cereblon/CREB-binding protein (Homo sapiens) (UniProt Q92793+Q96SW2)", "Active"],
  ["CNC(=O)N1CCc2c(c(N3CCCc4cc(-c5cnn(C)c5)c(C(F)F)cc43)nn2C2CCN(C(=O)CCOCCOCCOCCOCCOCCOCCNc3ccc4c(c3)C(=O)N(C3CCC(=O)NC3=O)C4=O)CC2)C1 (stereo not drawn)", "Protein cereblon/CREB-binding protein (Homo sapiens) (UniProt Q92793+Q96SW2)", "Active"],
  ["CNC(=O)N1CCc2c(c(N3CCCc4cc(-c5cnn(C)c5)c(C(F)(F)F)cc43)nn2C2CCN(C(=O)CCOCCOCCOCCOCCNc3ccc4c(c3)C(=O)N(C3CCC(=O)NC3=O)C4=O)CC2)C1 (stereo not drawn)", "Protein cereblon/CREB-binding protein (Homo sapiens) (UniProt Q92793+Q96SW2)", "Active"],
  ["CNC(=O)N1CCc2c(c(N3CCN(C(=O)NCCOCCOCCOCCOCCNc4ccc5c(c4)C(=O)N(C4CCC(=O)NC4=O)C5=O)c4cc(-c5cnn(C)c5)c(C(F)(F)F)cc43)nn2C2CCOCC2)C1 (stereo not drawn)", "Protein cereblon/CREB-binding protein (Homo sapiens) (UniProt Q92793+Q96SW2)", "Active"],
  ["CNC(=O)N1CCc2c(c(N3CCN(C(=O)NCCOCCOCCOCCOCCOCCOCCNc4ccc5c(c4)C(=O)N(C4CCC(=O)NC4=O)C5=O)c4cc(-c5cnn(C)c5)c(C(F)(F)F)cc43)nn2C2CCOCC2)C1 (stereo not drawn)", "Protein cereblon/CREB-binding protein (Homo sapiens) (UniProt Q92793+Q96SW2)", "Active"],
  ["CNC(=O)N1CCc2c(c(N3CCCc4cc(-c5cnn(CC(=O)NCCOCCOCCOCCOCCNc6ccc7c(c6)C(=O)N(C6CCC(=O)NC6=O)C7=O)c5)c(C(F)F)cc43)nn2C2CCOCC2)C1 (stereo not drawn)", "Protein cereblon/CREB-binding protein (Homo sapiens) (UniProt Q92793+Q96SW2)", "Active"],
  ["CNC(=O)N1CCc2c(c(N3CCCc4cc(-c5cnn(C)c5)c(C(F)F)cc43)nn2C2CCN(C(=O)CCOCCNc3ccc4c(c3)C(=O)N(C3CCC(=O)NC3=O)C4=O)CC2)C1 (stereo not drawn)", "Protein cereblon/CREB-binding protein (Homo sapiens) (UniProt Q92793+Q96SW2)", "Active"]
]}

###

Target: Protein cereblon/CREB-binding protein (Homo sapiens) (UniProt Q92793+Q96SW2)
Assay: PROTAC activity at CRBN/HiBiT-tagged CBP in human HAP1 cells assessed as total cumulative degradation by measuring AUC at 0.01 nM measured over 24 hrs by luminescence based analysis; also: unit not given here
Type: cell-based
Reported AUC values follow for various molecules

{"columns": ["molecule", "AUC"],
 "data": [
  ["CNC(=O)N1CCc2c(c(N3CCCc4cc(-c5cnn(C)c5)c(C(F)F)cc43)nn2C2CCN(C(=O)CCOCCNc3ccc4c(c3)C(=O)N(C3CCC(=O)NC3=O)C4=O)CC2)C1 (stereo not given)", 25.6],
  ["CNC(=O)N1CCc2c(c(N3CCN(C(=O)NCCOCCOCCOCCOCCOCCOCCNc4ccc5c(c4)C(=O)N(C4CCC(=O)NC4=O)C5=O)c4cc(-c5cnn(C)c5)c(C(F)(F)F)cc43)nn2C2CCOCC2)C1 (stereo not given)", 24.9],
  ["CNC(=O)N1CCc2c(c(N3CCCc4cc(-c5cnn(C)c5)c(C(F)F)cc43)nn2C2CCN(C(=O)CCOCCOCCOCCOCCNc3ccc4c(c3)C(=O)N(C3CCC(=O)NC3=O)C4=O)CC2)C1 (stereo not given)", 24.7],
  ["CNC(=O)N1CCc2c(c(N3CCCc4cc(-c5cnn(C)c5)c(C(F)F)cc43)nn2C2CCN(C(=O)CCOCCOCCOCCOCCOCCOCCNc3ccc4c(c3)C(=O)N(C3CCC(=O)NC3=O)C4=O)CC2)C1 (stereo not given)", 26.3],
  ["CNC(=O)N1CCc2c(c(N3CCCc4cc(-c5cnn(C)c5)c(C(F)(F)F)cc43)nn2C2CCN(C(=O)CCOCCOCCOCCOCCNc3ccc4c(c3)C(=O)N(C3CCC(=O)NC3=O)C4=O)CC2)C1 (stereo not given)", 24.1],
  ["CNC(=O)N1CCc2c(c(N3CCN(C(=O)NCCOCCNc4ccc5c(c4)C(=O)N(C4CCC(=O)NC4=O)C5=O)c4cc(-c5cnn(C)c5)c(C(F)(F)F)cc43)nn2C2CCOCC2)C1 (stereo not given)", 23.4],
  ["CNC(=O)N1CCc2c(c(N3CCCc4cc(-c5cnn(CC(=O)NCCOCCOCCOCCOCCOCCOCCNc6ccc7c(c6)C(=O)N(C6CCC(=O)NC6=O)C7=O)c5)c(C(F)F)cc43)nn2C2CCOCC2)C1 (stereo not given)", 21.6],
  ["CNC(=O)N1CCc2c(c(N3CCN(C(=O)NCCOCCOCCOCCOCCNc4ccc5c(c4)C(=O)N(C4CCC(=O)NC4=O)C5=O)c4cc(-c5cnn(C)c5)c(C(F)(F)F)cc43)nn2C2CCOCC2)C1 (stereo not given)", 24.1],
  ["CNC(=O)N1CCc2c(c(N3CCCc4cc(-c5cnn(CC(=O)NCCOCCOCCOCCOCCNc6ccc7c(c6)C(=O)N(C6CCC(=O)NC6=O)C7=O)c5)c(C(F)F)cc43)nn2C2CCOCC2)C1 (stereo not given)", 22.4],
  ["CNC(=O)N1CCc2c(c(N3CCCc4cc(-c5cnn(CC(=O)NCCOCCNc6ccc7c(c6)C(=O)N(C6CCC(=O)NC6=O)C7=O)c5)c(C(F)F)cc43)nn2C2CCOCC2)C1 (stereo not given)", 24.2]
]}

###

Molecular target: Protein cereblon/Histone acetyltransferase p300 (Homo sapiens) (UniProt Q09472+Q96SW2)
Test: PROTAC activity at CRBN/HiBiT-tagged p300 in human HAP1 cells assessed as induction of p300 degradation by measuring degradation rate at 1000 nM measured over 24 hrs by luminescence based analysis
Type: cell-based
Returns one of Satisfied or Not satisfied; Satisfied when Activity is >= 0.09 h⁻¹.

{"columns": ["compound", "group"],
 "data": [
  ["CNC(=O)N1CCc2c(c(N3CCCc4cc(-c5cnn(CC(=O)NCCOCCNc6ccc7c(c6)C(=O)N(C6CCC(=O)NC6=O)C7=O)c5)c(C(F)F)cc43)nn2C2CCOCC2)C1 (stereo not given)", "Satisfied"],
  ["CNC(=O)N1CCc2c(c(N3CCCc4cc(-c5cnn(C)c5)c(C(F)F)cc43)nn2C2CCN(C(=O)CCOCCOCCOCCOCCNc3ccc4c(c3)C(=O)N(C3CCC(=O)NC3=O)C4=O)CC2)C1 (stereo not given)", "Satisfied"],
  ["CNC(=O)N1CCc2c(c(N3CCCc4cc(-c5cnn(CC(=O)NCCOCCOCCOCCOCCNc6ccc7c(c6)C(=O)N(C6CCC(=O)NC6=O)C7=O)c5)c(C(F)F)cc43)nn2C2CCOCC2)C1 (stereo not given)", "Satisfied"],
  ["CNC(=O)N1CCc2c(c(N3CCN(C(=O)NCCOCCOCCOCCOCCOCCOCCNc4ccc5c(c4)C(=O)N(C4CCC(=O)NC4=O)C5=O)c4cc(-c5cnn(C)c5)c(C(F)(F)F)cc43)nn2C2CCOCC2)C1 (stereo not given)", "Not satisfied"]
]}

###

Target: Protein cereblon/CREB-binding protein (Homo sapiens) (UniProt Q92793+Q96SW2)
Assay: PROTAC activity at CRBN/HiBiT-tagged CBP in human HAP1 cells assessed as induction of CBP degradation by measuring degradation rate at 10 nM measured over 24 hrs by luminescence based analysis
Assay type: cell-based
Reported Activity values follow for various compounds

{"columns": ["compound", "Activity, h⁻¹"],
 "data": [
  ["CNC(=O)N1CCc2c(c(N3CCCc4cc(-c5cnn(C)c5)c(C(F)F)cc43)nn2C2CCN(C(=O)CCOCCOCCOCCOCCOCCOCCNc3ccc4c(c3)C(=O)N(C3CCC(=O)NC3=O)C4=O)CC2)C1 (stereo unspecified)", 0.68],
  ["CNC(=O)N1CCc2c(c(N3CCCc4cc(-c5cnn(CC(=O)NCCOCCNc6ccc7c(c6)C(=O)N(C6CCC(=O)NC6=O)C7=O)c5)c(C(F)F)cc43)nn2C2CCOCC2)C1 (stereo unspecified)", 0.21],
  ["CNC(=O)N1CCc2c(c(N3CCCc4cc(-c5cnn(C)c5)c(C(F)F)cc43)nn2C2CCN(C(=O)CCOCCNc3ccc4c(c3)C(=O)N(C3CCC(=O)NC3=O)C4=O)CC2)C1 (stereo unspecified)", 0.31],
  ["CNC(=O)N1CCc2c(c(N3CCCc4cc(-c5cnn(C)c5)c(C(F)(F)F)cc43)nn2C2CCN(C(=O)CCOCCOCCOCCOCCNc3ccc4c(c3)C(=O)N(C3CCC(=O)NC3=O)C4=O)CC2)C1 (stereo unspecified)", 1.3],
  ["CNC(=O)N1CCc2c(c(N3CCCc4cc(-c5cnn(C)c5)c(C(F)F)cc43)nn2C2CCN(C(=O)CCOCCOCCOCCOCCNc3ccc4c(c3)C(=O)N(C3CCC(=O)NC3=O)C4=O)CC2)C1 (stereo unspecified)", 1.1]
]}
